# Tested on: HOP-62 NSCLC
# test description: NCI tumour cell line growth inhibition, 48 h; in the data active means GI50 below about 0.43 µM; inactive means the rest
Outcome codes: T = active, F = inactive

{"columns": ["molecule", "group"],
 "data": [
  ["O=C(OCc1ncc(-c2ccc(C(F)(F)F)cc2)c(NC2CCCCCC2)n1)c1c(F)c(F)c(F)c(F)c1F", "F"],
  ["COc1ccccc1CNCCCN1C(=O)c2ccc3c4c(ccc(c24)C1=O)C(=O)N(CCCCNCCCN)C3=O", "F"],
  ["NC(=O)c1cccc(Nc2nccc(Nc3cccc4[nH]ncc34)n2)c1", "F"],
  ["CC(C)(C)CC(C)(C)NCc1cc(C(C)(C)C)cc(CNC(C)(C)CC(C)(C)C)c1O", "F"],
  ["Cc1cc(N2CCSCC2)nc(NC2CCCC(Nc3ccnc4cc(Cl)ccc34)C2)n1 (configuration not stated)", "F"],
  ["COc1cccc(NC(=O)c2sc3nc4c(cc3c2N)C(=O)CCC4)c1", "T"],
  ["Nc1nc(N)c2cc(NCc3ccc(Cl)c(Cl)c3)ccc2n1", "F"],
  ["Nc1nc(Cl)c(N=Nc2ccc(Cl)cc2)c(NCC2(CO)CCC2)n1", "F"],
  ["COC(=O)c1cc(O)c2c(c1C(=O)OC)C[C@H]1[C@@H]3CC=C4C[C@@H](O)CC[C@]4(C)[C@H]3CC[C@]21C", "F"],
  ["CC(C)(C)[Si](C)(C)OC1[C@@H](O[Si](C)(C)C(C)(C)C)[C@@H](CNC(=O)NC(=O)CCl)O[C@H]1n1cnc2c(NC(=O)Nc3ccccc3)ncnc21 (some centres not stated)", "T"],
  ["COc1ccc(C(=O)c2cc3c(N)c(C(=O)Nc4ccc(C)cc4)sc3nc2C)cc1", "F"],
  ["COc1cc(-c2nc(-c3nc4ccccc4[nH]3)cc3c2[nH]c2ccccc23)cc(OC)c1OC", "F"]
]}
